OD450 overview
Molecular target: T1, human MSLN-R1-his protein (human, UniProt Q13421 296-390)
T1 construct: Region 1 of human mesothelin, made in HEK293E cells, His-tagged; also called human MSLN-R1 protein; hMSLN-R1-his; not shown: His tag
T1 chain: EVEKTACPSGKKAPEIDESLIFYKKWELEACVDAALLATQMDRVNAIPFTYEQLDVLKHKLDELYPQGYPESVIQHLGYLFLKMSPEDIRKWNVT
Assay: ELISA on coated MSLN-R1; antibody 0.01 nM
Give just the number in OD450; leave the unit off.

binder: S009-F8-18.9 (antibody, human IgG1, kappa, V domains shown) VH: EFQLQQSGPELVKPGASVKISCKASGYSFTDYNMNWVKQSNGKSLEWIGIINPNYGTTSYNQKFKGRATLTVDQSSSTAYVQLNSLTSEDSAVYYCARGGYDNEAMDYWGQGTSVTVSS VL: QIVLTQSPAIMSASPGEKVTMTCSASSSVSYMHWYQQKSGTSPKRWIYDTSKLASGVPARFSGSGSGTSYSLTISSMEAEDAATYYCQQWSSNPPTFGAGTKLELKR
unit of measure: OD450
experimental value: 0.62

Next item in the queue.
INPUT: Which OD450 value is on record for S009-F8-19.21 (antibody, human IgG1, kappa, V domains shown) VH: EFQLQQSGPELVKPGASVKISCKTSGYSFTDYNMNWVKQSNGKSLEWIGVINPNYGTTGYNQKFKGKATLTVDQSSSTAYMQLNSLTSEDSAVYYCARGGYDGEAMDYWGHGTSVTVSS VL: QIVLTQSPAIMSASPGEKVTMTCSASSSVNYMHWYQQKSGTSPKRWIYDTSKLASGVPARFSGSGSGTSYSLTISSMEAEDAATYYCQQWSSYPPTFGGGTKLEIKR ?
OUTPUT: 0.39

Data credit: patent US20250250357A1
